Read-out: Protein phosphatase 2A (PPP2R4), PTPA (gene 5524)
Assay: LTEA_HepaRG_PPP2R4: Life Technologies and Expression Analysis (LTEA) Assay for Protein phosphatase 2A (PPP2R4) using HepaRG (AID 2283522)
Conditions: mRNA level, 48 h; actives raise or lower the signal
Activity calls are given as the source filed them. The calls were made as follows: active = hit-call score of the fitted dose curve at least 0.9, where 1 is the maximum; inactive = score below 0.9.
Outcome codes: active, inactive

- smiles representation: "O=C1CN(N=Cc2ccc([N+](=O)[O-])o2)C(=O)N1"
  label class: "inactive"
- smiles representation: "O=S(=O)(O)c1ccc(N=Nc2c(O)ccc3cc(S(=O)(=O)O)ccc23)cc1"
  label class: "inactive"
- smiles representation: "COc1cc2c(c(OC)c1OC)-c1ccc(OC)c(=O)cc1[C@@H](NC(C)=O)CC2"
  label class: "inactive"
- smiles representation: "c1ccc(C(O[C@@H]2CCCN(CCc3ccc4c(c3)OCO4)C2)c2ccccc2)cc1"
  label class: "active"
- smiles representation: "OCCNCCO"
  label class: "inactive"
- smiles representation: "CC(C)C(=O)Nc1ccc([N+](=O)[O-])c(C(F)(F)F)c1"
  label class: "inactive"
- smiles representation: "CCCCN1C(=O)[C@@H]([C@H](O)C2CCCCC2)NC(=O)C12CCN(Cc1ccc(Oc3ccc(C(=O)O)cc3)cc1)CC2"
  label class: "active"
- smiles representation: "CNC(C)=O"
  label class: "inactive"
- smiles representation: "CC[C@H](C)C(=O)O[C@H]1C[C@H](O)C=C2C=C[C@H](C)[C@H](CC[C@@H](O)C[C@@H](O)CC(=O)O)[C@H]21"
  label class: "inactive"
- smiles representation: "NC(=O)N1c2ccccc2C=Cc2ccccc21"
  label class: "inactive"
- smiles representation: "CCCCCOC(C)=O"
  label class: "inactive"
